Origin of measurements: PubChem BioAssay (NCI)

procedure details: NCI Yeast Anticancer Drug Screen. Data for the mlh1 rad18 strain (AID 175)
particulars: S. cerevisiae mlh1 rad18 strain growth inhibition; at 50.0 µM (retest, dose inferred, filed as 5.0); active compounds read high
About 79,000 compounds went through this panel and 15% of them were active in at least one assay; those are over-represented in the sample as a whole. Active and inactive are the calls of the source. Rule as the data show it: active = growth inhibition above about 70%; inactive = the rest.
Task for the reader: assign each of the following compounds its reported growth inhibition.

Would you please look over these solved cases?
>  <compound>
O=C(O)C(F)(F)F.[Ag]

>  <growth inhibition>
99% (active)

$$$$
>  <compound>
C[AsH](C)CC[AsH](C)C.C[AsH](C)CC[AsH](C)C.C[AsH](C)CC[AsH](C)C.[Ni]

>  <growth inhibition>
99% (active)

$$$$
>  <compound>
CC1c2c(n(C)c3ccccc23)C2CCC3(CO3)C1N2Cc1ccccc1 (stereo not given)

>  <growth inhibition>
98% (active)

$$$$

Batch request: growth inhibition per item, same order as input.
1. CC(C)[S-].CC(C)[S-].[Pt+2].c1ccc([PH+](c2ccccc2)c2ccccc2)cc1.c1ccc([PH+](c2ccccc2)c2ccccc2)cc1
2. [N-]=[N+]=Nc1c([N+](=O)[O-])c(=O)n2c3c(cccc13)CCC2

1: 97% (active); 2: 98% (active)

====

Task for the reader: assign each of the following molecules its reported growth inhibition.
procedure details: NCI Yeast Anticancer Drug Screen. Data for the mec2-1 strain (AID 157)
particulars: S. cerevisiae mec2-1 strain, at 50.0 µM (retest, dose inferred, filed as 5.0), active compounds read high
Description: Growth inhibition of yeast strains with defined genetic alterations is measured as a screen for potential anti-cancer activity. Selected strains with alterations in DNA damage repair or cell cycle control were exposed to compounds and growth inhibition was measured relative to vehicle treated controls. The strain used in this assay is mec2-1
The panel holds about 79,000 compounds, 15% with a hit somewhere; the sample as a whole holds those more often.
Give bare numbers, in %.

Would you please look over these solved cases?
>  <molecule>
CC(=O)OC[C@]12C[C@H](OC(=O)CC(C)C)C(C)=C[C@H]1OC1[C@H](O)[C@@H](OC(C)=O)[C@@]2(C)[C@@]12CO2

>  <growth inhibition (%)>
99

$$$$
>  <molecule>
C[n+]1c(/C=C/c2ccc(O)c3ccccc23)[se]c2ccccc21

>  <growth inhibition (%)>
40

$$$$
>  <molecule>
O=C(CBr)Nc1ccc(Cl)cc1

>  <growth inhibition (%)>
99

$$$$

Batch request: growth inhibition per item, same order as input.
1. C[As](C)SCCC(N)C(=O)NC(CCS[As](C)C)C(=O)O (stereo not given)
2. CC(C)CC(C)(c1ccc(O)cc1)c1ccc(O)cc1

1. 99
2. 99

====

procedure details: NCI Yeast Anticancer Drug Screen. Data for the cln2 rad14 strain (AID 165);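 also: 0% = growth equal to vehicle treated cultures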
particulars: S. cerevisiae cln2 rad14 strain, at 50.0 µM
This is part of a sample that, as a whole, favours compounds with a hit. Of some 79,000 tested, about 15% had one in any assay. Active and inactive are the calls of the source. Cut-off read from the data, not from the text of the source: active = growth inhibition above about 70%; inactive = the rest.
Parameter call: string, one of TRUE for active, FALSE for inactive

Past entries and their recorded results:
>  <compound>
CCOC(=O)[C]1([Pb]([CH3])([CH3])[CH3])N=NC(C(=O)OC)=C1C(=O)OC (stereo not drawn)

>  <group>
FALSE

$$$$
>  <compound>
CC(=O)OC1CC(OC2C(O)CC(OC3C(O)CC(OC4CCC5(C)C(CCC6C5CCC5(C)C(C7=CC(=O)OC7)C(O)CC65O)C4)OC3C)OC2C)OC(C)C1OC1OC(CO)C(O)C(O)C1O (stereo not drawn)

>  <group>
FALSE

$$$$
>  <compound>
CN(C)NP(c1ccccc1)c1ccccc1

>  <group>
FALSE

$$$$

// return assay outcome for CC(CCC/C=C/CCCN(C)C(=N)N)CC(C)C1OC(=O)C(C)C(O)/C=C/C(C)C(O)C(C)C(O)C(C)C(O)CCCC(O)CC2(O)OC(CC(OC(=O)CC(=O)O)CC(O)CC(O)C(C)C(O)/C=C/C=C/C1C)CC(O)C2O (stereo not drawn)
TRUE

// return assay outcome for "O=C1[C@@H]2[C@H](C(=O)N1c1ccccc1)[C@H]1CC[C@H]2N1C(=O)c1ccccc1"
FALSE

// return assay outcome for COc1cc(C(=O)OC(C)CC2(c3ccccc3)C(=O)NC(=O)NC2=O)cc(OC)c1OC (stereo not drawn)
FALSE

// return assay outcome for "S=P(Nc1ccccc1Cl)(Nc1ccccc1Cl)c1ccccc1"
FALSE

// return assay outcome for "CCOC(=O)CC(=O)C(F)(F)F.CCOC(=O)CC(=O)C(F)(F)F.[Ni]"
FALSE
